Assignment: determine reported kon for the given binders.
# system tested: T1, murine urokinase-type plasminogen activator (muPA) wild type (murine, UniProt P06869 21-433)
# T1 construct: cDNA encoding full length muPA; Two-chain form after plasmin; also called muPA wt; muPA-wt; source: HEK293 6E, transfected; treated with plasmin
# T1 sequence (P06869 21-433): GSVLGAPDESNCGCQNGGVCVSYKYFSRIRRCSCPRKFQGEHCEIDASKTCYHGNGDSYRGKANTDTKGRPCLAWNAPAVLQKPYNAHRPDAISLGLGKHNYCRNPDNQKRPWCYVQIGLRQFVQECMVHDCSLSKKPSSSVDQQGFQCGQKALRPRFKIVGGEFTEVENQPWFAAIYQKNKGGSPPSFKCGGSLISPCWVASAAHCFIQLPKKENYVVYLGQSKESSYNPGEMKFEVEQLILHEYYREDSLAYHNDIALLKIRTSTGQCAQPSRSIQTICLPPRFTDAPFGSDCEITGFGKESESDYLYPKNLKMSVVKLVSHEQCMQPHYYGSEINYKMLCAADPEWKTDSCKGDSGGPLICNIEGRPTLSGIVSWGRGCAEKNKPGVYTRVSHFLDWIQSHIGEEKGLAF
# method notes: SPR; Biacore T200; uPA variant amine-coupled to a CM5 chip (about 500 RU); peptides injected in HBS with 0.1% BSA, 30 µL/min, 25°C, pH 7.4; 1:1 kinetic fit; KD = koff/kon
# run parameters: both partners purified
Bridge positions count the residues as written; N and C are the ends. Square brackets hold non-standard residues; d marks the D form. Ends that are not written are not given here. Ala(1-amidino-4-piperidyl) = N=C(N)N1CCC(C[C@H](N)C(=O)O)CC1; Phe(4-guanidino) = N=C(N)Nc1ccc(C[C@H](N)C(=O)O)cc1
Answers are plain numbers, in M⁻¹ s⁻¹.

>>> observed_value("CPAYSRYLDC (disulfide 1-10 (inferred), Synthesised on a resin with Rink amide linker; source: synthetic peptide (solid-phase synthesis, HPLC purified)) [mupain-1]")
91400
>>> observed_value("CPAYS[Phe(4-guanidino)]YLDC (disulfide 1-10) [mupain-1-12]")
156000
>>> observed_value("CPAYS[Ala(1-amidino-4-piperidyl)]YLAC (disulfide 1-10; not fully specified) [Mupain-1-16 D9A]")
579000
>>> observed_value("CPAYS[Ala(1-amidino-4-piperidyl)]YLDC (disulfide 1-10; not fully specified) [mupain-1-16]")
89800

Now let's try a different one.
Task item: Looking for the measured kon of CPAYSRYLAC (disulfide 1-10 (inferred), mupain-1 with D9A; Rink amide linker resin; C-terminal amide surmised; source: synthetic peptide (solid-phase synthesis, HPLC purified)) [Mupain-1 D9A] , can you help?
Reply: 98500
